System: Human betaherpesvirus 5
Experiment: Antiviral activity against Cytomegalovirus CMV T2420 with pol G841A mutant infected in HFF cells by SEAP reporter gene assay
Format: functional, organism-based
Details: Human betaherpesvirus 5, T2420, HFF
Measured pEC50, listed per entry for reference.
Kindly note that pEC50 refers to -log10 of the concentration in mol/L and answer with the value alone.

Take a look at these entries with their results.
O=C(O)P(=O)(O)O    3.75
Nc1nc2c(ncn2COC(CO)CO)c(=O)[nH]1    5.46

Sure, the documented pEC50 for Nc1ccn(C[C@@H](CO)OCP(=O)(O)O)c(=O)n1.O.O is 6.24

###

Measured pEC50, listed per entry for reference.
Tested on: Human betaherpesvirus 5
Assay: Antiviral activity against Cytomegalovirus CMV T2258 with UL97 C592G mutant infected in HFF cells by SEAP reporter gene assay
Type: functional, organism-based
Conditions: Human betaherpesvirus 5, T2258, HFF
Kindly note that pEC50 refers to -log10 of the concentration in mol/L and answer with the value alone.

Take a look at these entries with their results.
Nc1nc2c(ncn2COC(CO)CO)c(=O)[nH]1 [GANCICLOVIR]    5.41
O=C(O)P(=O)(O)O [FOSCARNET]    4.36

Sure, the documented pEC50 for Nc1ccn(C[C@@H](CO)OCP(=O)(O)O)c(=O)n1.O.O [CIDOFOVIR] is 6.57
